Attribute: protein stability index
B1: CCDC70 (parent)
chain: FSFKVSRWMGLACFRSLAASSPSI

variants of: B1; experiment: protein stability index of a GFP-peptide fusion (GPS, HEK-293T) (PSI 1-6); higher = more stable; settings: c terminus: a fixed tail appended;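 also: lentivirally expressed fusions sorted by FACS into six bins by GFP to DsRed ratio, PSI derived from sequencing read proportions per bin multiplied by bin number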
Please reply with the value in numeric form only.

Reference set, count: 4
>>> measured_value("A12M")
3.25
>>> measured_value("L17T")
2.3
>>> measured_value("F3E")
2.21
>>> measured_value("S2R")
1.49

Ask | protein stability index for "V5E" ?
Reply | 1.29

Ask | I have this variant here, "R15E" , and I need its recorded protein stability index.
Reply | 3.26

Ask | Form field: reported protein stability index of "F3D"
Reply | 1.63

Ask | Param item = "S16C" ; retrieve measured protein stability index.
Reply | 2.56

Ask | Given "R15T" , state its recorded protein stability index.
Reply | 2.79

Ask | protein stability index lookup needed for "L11I" , thanks.
Reply | 3.88

Ask | Find the recorded protein stability index belonging to "S16K" and report it.
Reply | 2.18

Ask | What does the record list as protein stability index for "A19T" ?
Reply | 3.93

Ask | I'd like to know its protein stability index. The variant in question is "P22F"
Reply | 2.51

Ask | Find the recorded protein stability index belonging to "S20C" and report it.
Reply | 3.42

Ask | Entry "P22Q" has what protein stability index?
Reply | 3.8

Ask | Report protein stability index for "F1C" please.
Reply | 2.38

Ask | I have this variant here, "F14P" , and I need its recorded protein stability index.
Reply | 3.6

Ask | So what does the record say about protein stability index for "F1L" ?
Reply | 4.16

Ask | Form field: reported protein stability index of "F1R"
Reply | 2.08

Ask | Given the entry "V5D" , report its measured protein stability index.
Reply | 1.73

Ask | Find the recorded protein stability index belonging to "A19D" and report it.
Reply | 2.88

Ask | GET /values?readout=protein stability index&item= "S21M"
Reply | 3.02

Source listed as the supplement of paper PMC10567573.
